Tested on: KM-20L2
Assay: NCI tumour cell line growth inhibition, 48 h
The source made the active and inactive calls. Cut-off read from the data, not from the text of the source: active = GI50 up to about 1.1 µM and inactive = higher.
Please provide measured GI50 for the entries that follow.

Recall and state the measured GI50 for O=C1/C=C(/c2ccc(O)cc2)[C@@H](O)Cc2ccc(O)cc2O1 .
> 100 µM (inactive)

For the molecule Oc1nc(-c2ccccc2)cc(-c2ccccc2O)n1 , give its reported GI50.
67.5 µM (inactive)

Could you please provide reported GI50 for O=c1[nH]c2ccccc2cc1C(Cl)=C(Cl)Cl ? Thanks!
> 100 µM (inactive)

Identify measured GI50 associated with CC(NC(=O)/C(C#N)=C/c1ccc2[nH]ccc2c1)c1ccccc1 (stereo unspecified)
18.6 µM (inactive)

Note GI50 for the molecule shown: CC1=[N+]([O-])c2ccccc2C(=O)C1=O
> 100 µM (inactive)

For O=C(O)c1ccc(C2C(=O)N[C@@H]3CCC[C@H]23)cc1 (stereo partly specified) , write its GI50.
> 100 µM (inactive)

----------
Tested on: T47D
Test: NCI tumour cell line growth inhibition, 48 h
Activity calls are given as the source filed them. Cut-off read from the data, not from the text of the source: active = GI50 up to about 1.1 µM and inactive = higher.
OBSERVED_PROPERTY: GI50

Give GI50 for O=C(NCCc1ccc(F)cc1)c1cc(/C=C/c2cc(O)ccc2O)ccc1O tested on T47D.
2.24 µM (inactive)

Report GI50 under test system T47D for CN(C)CCOc1ccc(-c2c(Oc3ccccc3)c(=O)oc3ccccc23)cc1 .
12.7 µM (inactive)

# return GI50 of NC(=O)C1CCN(Cc2c(Cl)c(Cl)c(CN3CCC(C(N)=O)CC3)c(Cl)c2Cl)CC1 (system: T47D)
> 100 µM (inactive)

Print T47D GI50 for C[C@]12CC/C(=N\OCCN3CCCCC3)C=C1CCC1C2CC[C@@]2(C)C1CC[C@]2(C)O (some centres undefined) .
13.1 µM (inactive)

Report the value of GI50 obtained on T47D for c1ccc2c(c1)CCN(C1=NCCO1)C2 .
> 10 µM (inactive)

Give GI50 for this entry on T47D: O=C(c1ccccc1)c1ccc(-n2c3ccccc3c3ccc4c(c32)C(=O)C=CC4=O)cc1
3.1 µM (inactive)

Answer briefly: GI50 recorded on T47D for C/C(=N\O)c1ccc2ccc3ccccc3c2c1
56.6 µM (inactive)

Output reported GI50 of the molecule C[C@]12CC[C@H](O)CC1=CC[C@@H]1[C@@H]2CC[C@]2(C)C(=O)/C(=C/c3ccc([N+](=O)[O-])cc3)C[C@@H]12 on T47D.
14.3 µM (inactive)

State measured GI50 of the molecule Cc1c(CCN=P(c2ccccc2)(c2ccccc2)c2ccccc2)c(=O)n2c([nH]c3ccccc32)c1C#N with T47D.
> 10 µM (inactive)

----------
System: SK-OV-3
Test: NCI tumour cell line growth inhibition, 48 h
Activity calls are given as the source filed them. Cut-off read from the data, not from the text of the source: active = GI50 up to about 1.1 µM and inactive = higher.
Select the correct class. Options are TRUE = active, FALSE = inactive and nothing else.

Fill in: this test's call for CC(O)C(NC(=O)c1ccccc1)C(=O)N(Cc1ccccc1)Cc1ccccc1 (stereo unspecified) is ___
FALSE

Dear colleague, could you share the recorded outcome for N#Cc1nc(-c2ccc(-c3nc(C#N)c(N)o3)cc2)oc1N when you have a moment?
FALSE

// return assay outcome for CSc1cnc2ccccc2c1SC1CN(Cc2ccccc2)c2ccccc2C1=O (stereo unspecified)
FALSE

Assay outcome for COc1cc(C(=O)N[C@H]2CCc3cc(OC)c(OC)c(OC)c3-c3ccc(SC)c(=O)cc32)cc(OC)c1OC : what was it?
TRUE

Record request — test call for C/N=N/N(C)C(=O)NC
FALSE

Record lookup: outcome of this test for CCCN(CCC)c1c([N+](=O)[O-])cc(S(N)(=O)=O)cc1[N+](=O)[O-] ?
FALSE

These measurements were taken from ChEMBL document CHEMBL1201862.
